Recorded values, source patent US12624018B1.

Provide the reported IC50 of each item.
Test system: human NOD2 signaling
Test: Inhibition of human NOD2 signaling in HEK-Blue-hNOD2 cells (L18-MDP stimulated, SEAP reporter)
Assay type: cell-based
Conditions: Homo sapiens, HEK-Blue hNOD2, HEK-Blue-hNOD2 cells, NOD2 ligand stimulation, SEAP reporter; read-out: hNOD2 IC50
The figure you give is taken to be in nM; do not add the unit.

Task: Quick check: IC50 of Cc1c(Oc2ccnc3ccc(C4(C(N)=O)CCC4)cc23)cc(F)c(CC(=O)Nc2cnn(C(C)(C)C)c2)c1F ?
Result: 0.8

Task: And the next one, Cc1c(Oc2ccnc3ccc(S(=N)(=O)C(C)C)cc23)ccc(CC(=O)Nc2cnn(C(C)(C)C)c2)c1F (single isomer, unassigned) ?
Result: 0.4

Task: And the next one, COc1ccc2ncnc(Oc3ccc(CC(=O)Nc4cnn(C(C)(C)C)c4)c(F)c3)c2c1 ?
Result: 11.4

Task: And the next one, Cc1c(CC(=O)Nc2cnn(C(C)(C)C)c2)ccc(Oc2ccnc3ccc(S(C)(=O)=O)cc23)c1C ?
Result: 1.5

Task: And the next one, Cc1c(Oc2ccnc3ccc(S(=O)(=O)C4CC4)cc23)ccc(CC(=O)Nc2cnn(C(C)(C)C)c2)c1F ?
Result: 0.2

Task: And the next one, Cc1c(Oc2ccnc3ccc(S(C)(=O)=O)cc23)ccc(CC(=O)Nc2cnn(C(C)(C)C)c2)c1F ?
Result: 0.5

Task: And the next one, Cc1cc(CC(=O)Nc2cnn(C34CC(C3)C4)c2)ccc1Oc1ccnc2ccc(S(=N)(=O)C3CC3)cc12 (single isomer, unassigned) ?
Result: 14.3

Task: And the next one, CNC(=O)c1ccc2nccc(Oc3cc(F)c(CC(=O)Nc4cnn(C(C)(C)C)c4)cc3Cl)c2c1 ?
Result: 0.4

Task: And the next one, CC(C)(C)n1cc(NC(=O)Cc2cc(Cl)c(Oc3ccnc4ccc(S(C)(=O)=O)cc34)cc2F)cn1 ?
Result: 1.6

Task: And the next one, Cc1cc(CC(=O)Nc2cnn(C(C)(C)C)c2)cc(F)c1Oc1ccnc2cc(F)c(C(N)=O)cc12 ?
Result: 2.3

Task: And the next one, Cc1c(Oc2ccnc3ccc(S(C)(=O)=O)cc23)cc(F)c(CC(=O)Nc2cnn(C(C)(C)C)c2)c1F ?
Result: 0.3

Task: And the next one, Cc1cc(CC(=O)Nc2cnn(C(C)(C)C)c2)c(F)cc1Oc1ccnc2ccc(C(=O)N3C[C@@H]4C[C@H]3CN4)cc12 ?
Result: 9.9

Task: And the next one, Cc1ccnnc1-c1ccc2nccc(Oc3cc(F)c(CC(=O)Nc4cnn(C(C)(C)C)c4)cc3Cl)c2c1 ?
Result: 0.7

Task: And the next one, [2H]C([2H])([2H])NC(=O)c1ccc2nccc(Oc3cc(F)c(CC(=O)Nc4cnn(C(C)(C)C)c4)c(F)c3C)c2c1 (single isomer, unassigned) ?
Result: 0.1

Task: And the next one, Cc1cc(CC(=O)Nc2cnn(C34CC(C3)C4)c2)cc(C)c1Oc1ccnc2ccc(C(N)=O)cc12 ?
Result: 28.6

Task: And the next one, [2H]C([2H])([2H])NC(=O)c1ccc2nccc(Oc3cc(F)c(CC(=O)Nc4cnn(C56CC(C5)C6)c4)cc3C([2H])([2H])[2H])c2c1 (single isomer, unassigned) ?
Result: 2.4

Task: And the next one, CNC(=O)c1cc2c(Oc3c(C)cc(CC(=O)Nc4cnn(C(C)(C)C)c4)cc3F)ccnc2cc1F ?
Result: 1.7
